Molecular target: GLP1R (Homo sapiens)
Test: GLP1R cAMP assay (HTRF cAMP detection, agonist activity)
Format: cell-based
Design: host or cells: Flp-In-293
Conditions: Flp-In-293-GLP1R cells, 30 min at 37° C., read-out: EC50 (nM) Assay 1
Sequence (P43220 24-463, species assumed): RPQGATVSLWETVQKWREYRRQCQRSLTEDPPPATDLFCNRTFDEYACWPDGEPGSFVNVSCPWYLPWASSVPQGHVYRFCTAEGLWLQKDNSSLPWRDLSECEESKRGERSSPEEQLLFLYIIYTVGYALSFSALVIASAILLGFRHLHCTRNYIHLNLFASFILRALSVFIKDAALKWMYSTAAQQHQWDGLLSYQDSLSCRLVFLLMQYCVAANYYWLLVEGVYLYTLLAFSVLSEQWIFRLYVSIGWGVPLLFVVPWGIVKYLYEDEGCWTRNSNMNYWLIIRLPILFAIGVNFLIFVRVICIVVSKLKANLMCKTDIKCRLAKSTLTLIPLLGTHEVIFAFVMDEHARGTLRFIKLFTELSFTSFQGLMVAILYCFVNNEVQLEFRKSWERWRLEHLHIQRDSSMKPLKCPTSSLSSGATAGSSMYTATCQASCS
Note to self: EC50 under 0.03 nM means Fulfilled, ties and anything higher get Not fulfilled.

compound | discrete_label
N#Cc1ccc(COc2ccnc(C34CCN(Cc5nc6ccc(C(=O)O)cc6n5C[C@@H]5CCO5)CC3C4)n2)c(F)c1 (stereo partly shown) [Compound 1-11] | Not fulfilled
N#Cc1ccc(COc2cccc(C34CCN(Cc5nc6c(F)cc(C(=O)O)cc6n5C[C@@H]5CCO5)CC3C4)n2)c(F)c1 (single isomer, unassigned) [Compound 1-10-B] | Fulfilled
O=C(O)c1ccc2nc(CN3C4CC3CN(c3cccc(OCc5ccc(Cl)cc5F)n3)C4)n(C[C@@H]3CCO3)c2c1 | Not fulfilled
N#Cc1ccc(COc2ccnc(C34CCN(Cc5nc6ccc(C(=O)O)cc6n5C[C@@H]5CCO5)CC3C4)n2)c(F)c1 (single isomer, unassigned) [Compound 1-11-B] | Fulfilled
O=C(O)c1ccc2nc(CN3C4CCC3CN(c3cccc(OCc5ccc(Cl)cc5F)n3)C4)n(C[C@@H]3CCO3)c2c1 | Not fulfilled

I'd appreciate it if you could check whether N#Cc1ccc(COc2cccc(N3CC4CN(Cc5nc6ccc(C(=O)O)cc6n5CC5CCO5)CC4C3)n2)c(F)c1 (stereo not shown) has EC50 smaller than 0.03 nM.
Not fulfilled

# strict comparison: is reported EC50 < 0.03 nM? input = N#Cc1ccc(COc2cccc(N3C4CCC3CN(Cc3nc5ccc(C(=O)O)cc5n3CC3CCOC3)C4)n2)c(F)c1 (stereo not shown)
Not fulfilled

Hi there! Is EC50 for CS(=O)(=O)NC(=O)c1ccc2nc(CN3CC4CCC(C3)N4c3cccc(OCc4ccc(C#N)cc4F)n3)n(C[C@@H]3CCO3)c2c1 below 0.03 nM, do you know?
Not fulfilled

Problem: For the compound N#Cc1ccc(COc2cccc(N3CC4CN(Cc5nc6ccc(C(=O)O)cc6n5CC5CCOC5)CC4C3)n2)c(F)c1 (stereo not shown) , is EC50 under 0.03 nM?
Not fulfilled

###

Molecular target: GLP1R (Homo sapiens, UniProt P43220)
Assay: GLP1R/CRE-Luc luciferase reporter gene assay (agonist activity)
Type: cell-based
Parameters: host or cells: HKE293 (so in the source)
Conditions: HKE293-Human GLP1R/CRE-luc cells, 5 h at 37° C., read-out: EC50 (nM) Assay 2
Sequence (P43220 24-463): as the sequence (P43220 24-463, species assumed) above
observed_property: EC50 (nM)
One number for each entry, in nM.

Here's what some known entries look like.
compound | observed_property | unit_abbreviation | readout_value
COc1cc(C#N)ccc1COc1cccc(C23CCN(Cc4nc5c(OC)cc(C(=O)O)cc5n4C[C@@H]4CCO4)CC2C3)n1 (stereo partly drawn) [Compound 1-24] | EC50 | nM | 0.37
COc1cc(Br)ccc1COc1cccc(C23CCN(Cc4nc5ccc(C(=O)O)cc5n4C[C@@H]4CCO4)CC2C3)n1 (stereo partly drawn) [Compound 1-16] | EC50 | nM | 24.8
N#Cc1ccc(COc2cccc(C34CCN(Cc5nc6ccc(C(=O)O)cc6n5C[C@@H]5CCO5)CC3C4)n2)c(F)c1 (single isomer, unassigned) [Compound 1-1-A] | EC50 | nM | 48.7
COc1cc(C#N)ccc1COc1nccc(C23CCN(Cc4nc5ccc(C(=O)O)cc5n4C[C@@H]4CCO4)CC2C3)n1 (stereo partly drawn) [Compound 1-27] | EC50 | nM | 11.7
COc1cc(C#N)ccc1COc1nc(C23CCN(Cc4nc5c(OC)cc(C(=O)O)cc5n4C[C@@H]4CCO4)CC2C3)ccc1OC (stereo partly drawn) [Compound 1-30] | EC50 | nM | 28.1

Need EC50 for each of these compounds.
1. COc1cc(C#N)ccc1COc1cncc(C23CCN(Cc4nc5ccc(C(=O)O)cc5n4C[C@@H]4CCO4)CC2C3)n1 (stereo partly drawn) [Compound 1-21]
2. COc1ccc(COc2cccc(C34CCN(Cc5nc6ccc(C(=O)O)cc6n5C[C@@H]5CCO5)CC3C4)n2)c(F)c1 (stereo partly drawn) [Compound 1-37]
3. COc1cc(C#N)ccc1COc1nc(C23CCN(Cc4nc5c(OC)cc(C(=O)O)cc5n4C[C@@H]4CCO4)CC2C3)ncc1F (stereo partly drawn) [Compound 1-43]
4. N#Cc1ccc(COc2cccc(C34CCN(Cc5nc6ccc(C(=O)O)cc6n5C[C@@H]5CCO5)CC3C4)n2)c(F)c1 (single isomer, unassigned) [Compound 1-1-B]
5. COc1cc(C#N)ccc1COc1ccnc(C23CCN(Cc4nc5c(OC)cc(C(=O)O)cc5n4C[C@@H]4CCO4)CC2C3)n1 (single isomer, unassigned) [Compound 1-38-B]
6. COc1cc(C(F)(F)F)ccc1COc1ccnc(C23CCN(Cc4nc5c(OC)cc(C(=O)O)cc5n4C[C@@H]4CCO4)CC2C3)n1 (stereo partly drawn) [Compound 1-34]
7. COc1nc(C#N)ccc1COc1cccc(C23CCN(Cc4nc5ccc(C(=O)O)cc5n4C[C@@H]4CCO4)CC2C3)n1 (stereo partly drawn) [Compound 1-13]
8. COc1cc(C#N)ccc1COc1ccnc(C23CCN(Cc4nc5ccc(C(=O)O)cc5n4C[C@@H]4CCO4)CC2C3)n1 (single isomer, unassigned) [Compound 1-26-B]

39.1
497
0.49
84.9
0.28
1.06
35.8
7.54

For each of the compounds below, state EC50.
1. COc1cc(C#N)ccc1COc1cccc(C23CCN(Cc4nc5ccc(C(=O)O)cc5n4C[C@@H]4CCO4)CC2C3)n1 (single isomer, unassigned) [Compound 1-6-B]
2. COCc1ccc(COc2cccc(C34CCN(Cc5nc6ccc(C(=O)O)cc6n5C[C@@H]5CCO5)CC3C4)n2)c(OC)c1 (stereo partly drawn) [Compound 1-15]
3. COc1cc(Cl)ccc1COc1cccc(C23CCN(Cc4nc5ccc(C(=O)O)cc5n4C[C@@H]4CCO4)CC2C3)n1 (stereo partly drawn) [Compound 1-12]
4. COc1cc(C#N)ccc1COc1cccc(C23CCN(Cc4nc5c(C(C)=O)cc(C(=O)O)cc5n4C[C@@H]4CCO4)CC2C3)n1 (stereo partly drawn) [Compound 1-20]
5. O=C(O)c1ccc2nc(CN3CCC4(c5cccc(OCc6ccc(Cl)cc6F)n5)CC4C3)n(C[C@@H]3CCO3)c2c1 (stereo partly drawn) [Compound 1-5]
6. COc1cc(C#N)ccc1COc1cccc(C23CCN(Cc4nc5c(F)cc(C(=O)NS(C)(=O)=O)cc5n4C[C@@H]4CCO4)CC2C3)n1 (stereo partly drawn) [Compound 7-1]
7. COc1cc(C#N)ccc1COc1nc(C23CCN(Cc4nc5c(OC)cc(C(=O)O)cc5n4C[C@@H]4CCO4)CC2C3)ccc1F (stereo partly drawn) [Compound 1-28]

1. 4.98
2. 439
3. 26.4
4. 9.67
5. 100
6. 266
7. 0.46

Give me EC50 for each of these compounds, listed below.
1. [2H]C([2H])([2H])Oc1cc(C(=O)O)cc2c1nc(CN1CCC3(c4cccc(OCc5ccc(C#N)cc5OC)n4)CC3C1)n2C[C@@H]1CCO1 (stereo partly drawn) [Compound 1-32]
2. COc1cc(C#N)ccc1COc1cccc(C23CCN(Cc4nc5ccc(C(=O)O)cc5n4C[C@@H]4CCO4)CC2C3)n1 (single isomer, unassigned) [Compound 1-6-A]
3. COc1nc(C#N)ccc1COc1ccnc(C23CCN(Cc4nc5c(OC)cc(C(=O)O)cc5n4C[C@@H]4CCO4)CC2C3)n1 (stereo partly drawn) [Compound 1-35]

0.49
5.55
2.68
